B1: FtsZ (purified, WT) [E. coli] / itself (parent)
chain: MFEPMELTNDAVIKVIGVGGGGGNAVEHMVRERIEGVEFFAVNTDAQALRKTAVGQTIQIGSGITKGLGAGANPEVGRNAADEDRDALRAALEGADMVFIAAGMGGGTGTGAAPVVAEVAKDLGILTVAVVTKPFNFEGKKRMAFAEQGITELSKHVDSLITIPNDKLLKVLGRGISLLDAFGAANDVLKGAVQGIAELITRPGLMNVDFADVRTVMSEMGYAMMGSGVASGEDRAEEAAEMAISSPLLEDIDLSGARGVLVNITAGFDLRLDEFETVGNTIRAFASDNATVVIGTSLDPDMNDELRVTVVATGIGMDKRPEITLVTNKQVQQPVMDRYQQHGMAPLTQEQKPVAKVVNDNAPQTAKEPDYLDIPAFLRKQAD

Variants of: B1
procedure-text: sedimentation (co-pelleting) assay, SDS-PAGE quantification
experimental-context: with itself; 5 µM FtsZ, no ZapD; 50 mM K-MOPS pH 6.5, 50 mM KCl, 2.5 mM MgCl2, 1 mM GTP, 3 µM BSA; read off a plot
assay-metric: response (% FtsZ in pellet)

| mutant-name | observed-value |
| --- | --- |
| chain 1 K380Q A382Q D383Q | 24 |
| chain 1 K380D D383K | 23 |
| chain 1 K380R D383R | 23 |
| chain 1 K380D | 27 |
| chain 1 D383K | 27 |
